All figures here come from patent US11426473B2.

- Test system: U87MG cells subcutaneous tumor
- assay.summary: Concentration of radioactivity in tumor of labeled compounds (Test Example 4)
- Format: in vivo, mouse
- condition.summary: 4 hours later, tail vein, 111In 740 kBq, 64Cu and 90Y 500 kBq
Would you mind telling me the reported Concentration of radioactivity in tumor of each entry?
Respond numerically; units are % ID/g and should not be typed.

-- ask What value of Concentration of radioactivity in tumor has been reported for the following compound? Cc1cc(OCCCC(=O)NCCNC(=O)[C@H](CS(=O)(=O)O)NC(=O)CN2CCN(CC(=O)[O-])CCN(CC(=O)[O-])CCN(CC(=O)[O-])CC2)cc(C)c1S(=O)(=O)N[C@@H](CNC(=O)CCCCc1ccc2c(n1)NCCC2)C(=O)O.[111In+3] [[^111In]-(P2)]
-- reply 11.10

-- ask What value of Concentration of radioactivity in tumor has been reported for the following compound? Cc1cc(OCCCC(=O)NCCNC(=O)C(CS(=O)(=O)O)NC(=O)C(CS(=O)(=O)O)NC(=O)CN2CCN(CC(=O)[O-])CCN(CC(=O)[O-])CCN(CC(=O)[O-])CC2)cc(C)c1S(=O)(=O)NC(CNC(=O)c1ccc(CCCNc2ccccn2)cc1)C(=O)O.[111In+3] (centres unmarked) [[^111In]-(Z8)]
-- reply 6.95

###

Would you mind telling me the reported Concentration of radioactivity in tumor of each entry?
- Test system: U87MG cells subcutaneous tumor
- assay.summary: Concentration of radioactivity in tumor of labeled compounds (Test Example 4)
- Assay type: in vivo, mouse
- condition.summary: 24 hours later, tail vein, 111In 740 kBq, 64Cu and 90Y 500 kBq
Respond numerically; units are % ID/g and should not be typed.

-- ask So what Concentration of radioactivity in tumor did Cc1cc(OCCCC(=O)NCCNC(=O)[C@H](CS(=O)(=O)O)NC(=O)CN2CCN(CC(=O)[O-])CCN(CC(=O)[O-])CCN(CC(=O)[O-])CC2)cc(C)c1S(=O)(=O)N[C@@H](CNC(=O)CCCCc1ccc2c(n1)NCCC2)C(=O)O.[90Y+3] [[^90Y]-(P2)] get with U87MG cells subcutaneous tumor?
-- reply 15.29

-- ask So what Concentration of radioactivity in tumor did Cc1cc(OCCCC(=O)NCCNC(=O)COCCOCCNC(=O)C(CCCCN)NC(=O)CN2CCN(CC(=O)[O-])CCN(CC(=O)[O-])CCN(CC(=O)[O-])CC2)cc(C)c1S(=O)(=O)NC(CNC(=O)c1ccc(CCc2ccc3c(n2)NCCC3)cc1)C(=O)O.[111In+3] (stereo not drawn) [[^111In]-(E3)] get with U87MG cells subcutaneous tumor?
-- reply 12.40

-- ask So what Concentration of radioactivity in tumor did Cc1cc(OCCCC(=O)NCCNC(=O)[C@H](CS(=O)(=O)O)NC(=O)CN2CCN(CC(=O)[O-])CCN(CC(=O)[O-])CCN(CC(=O)[O-])CC2)cc(C)c1S(=O)(=O)N[C@@H](CNC(=O)CCCCc1ccc2c(n1)NCCC2)C(=O)O.[111In+3] [[^111In]-(P2)] get with U87MG cells subcutaneous tumor?
-- reply 9.62

-- ask So what Concentration of radioactivity in tumor did Cc1cc(OCCCC(=O)NCCNC(=O)[C@H](CS(=O)(=O)O)NC(=O)[C@H](CS(=O)(=O)O)NC(=O)CN2CCN(CC(=O)[O-])CCN(CC(=O)[O-])CCN(CC(=O)[O-])CC2)cc(C)c1S(=O)(=O)N[C@@H](CNC(=O)c1ccc(CCc2ccc3c(n2)NCCC3)s1)C(=O)O.[111In+3] [[^111In]-(X9)] get with U87MG cells subcutaneous tumor?
-- reply 8.54

-- ask So what Concentration of radioactivity in tumor did O=C([O-])CN1CCN(CC(=O)[O-])CCN(CC(=O)NC(CS(=O)(=O)O)C(=O)NC(CS(=O)(=O)O)C(=O)NCCNC(=O)CCCOc2cncc(C(CC(=O)O)n3ccc4cc(OCCc5ccc6c(n5)NCCC6)ccc43)c2)CCN(CC(=O)[O-])CC1.[111In+3] (mixture of isomers) [[^111In]-(I21)] get with U87MG cells subcutaneous tumor?
-- reply 9.95

-- ask So what Concentration of radioactivity in tumor did Cc1cc(OCCCC(=O)NCCNC(=O)[C@H](CS(=O)(=O)O)NC(=O)CN2CCN(CC(=O)[O-])CCN(CC(=O)[O-])CCN(CC(=O)[O-])CC2)cc(C)c1S(=O)(=O)N[C@@H](CNC(=O)c1ccc(CCc2ccc3c(n2)NCCC3)cc1)C(=O)O.[111In+3] [[^111In]-(B2)] get with U87MG cells subcutaneous tumor?
-- reply 11.00

-- ask So what Concentration of radioactivity in tumor did Cc1cc(OCCCC(=O)NCCNC(=O)[C@H](CS(=O)(=O)O)NC(=O)[C@H](CS(=O)(=O)O)NC(=O)CN2CCN(CC(=O)[O-])CCN(CC(=O)[O-])CCN(CC(=O)[O-])CC2)cc(C)c1S(=O)(=O)N[C@@H](CNC(=O)c1ccc(CCc2cccc(N)n2)cc1)C(=O)O.[111In+3] [[^111In]-(N3)] get with U87MG cells subcutaneous tumor?
-- reply 5.93

-- ask So what Concentration of radioactivity in tumor did Cc1cc(OCCCC(=O)NCCNC(=O)COCCOCCNC(=O)COCCOCCNC(=O)CN2CCN(CC(=O)[O-])CCN(CC(=O)[O-])CCN(CC(=O)[O-])CC2)cc(C)c1S(=O)(=O)N[C@@H](CNC(=O)c1ccc(CCc2ccc3c(n2)NCCC3)cc1)C(=O)O.[111In+3] [[^111In]-(F3)] get with U87MG cells subcutaneous tumor?
-- reply 8.41

-- ask So what Concentration of radioactivity in tumor did Cc1cc(OCCCC(=O)NCCNC(=O)COCCOCCNC(=O)CN2CCN(CC(=O)[O-])CCN(CC(=O)[O-])CCN(CC(=O)[O-])CC2)cc(C)c1S(=O)(=O)N[C@@H](CNC(=O)c1ccc(CCc2ccc3c(n2)NCCC3)cc1)C(=O)O.[111In+3] [[^111In]-(D3)] get with U87MG cells subcutaneous tumor?
-- reply 7.73

-- ask So what Concentration of radioactivity in tumor did Cc1cc(OCCCC(=O)NCCNC(=O)C(CS(=O)(=O)O)NC(=O)C(CS(=O)(=O)O)NC(=O)CN2CCN(CC(=O)[O-])CCN(CC(=O)[O-])CCN(CC(=O)[O-])CC2)cc(C)c1S(=O)(=O)NC(CNC(=O)c1ccc(CCCNc2ccccn2)cc1)C(=O)O.[111In+3] (stereo not drawn) [[^111In]-(Z8)] get with U87MG cells subcutaneous tumor?
-- reply 3.34

-- ask So what Concentration of radioactivity in tumor did Cc1cc(OCCCC(=O)NCCNC(=O)C(CS(=O)(=O)O)NC(=O)C(CS(=O)(=O)O)NC(=O)CN2CCN(CC(=O)[O-])CCN(CC(=O)[O-])CCN(CC(=O)[O-])CC2)cc(C)c1S(=O)(=O)NC(CNC(=O)c1ccc(CCc2ccc3c(n2)NCCC3)cc1)C(=O)O.[111In+3] (stereo not drawn) [[^111In]-(A8)] get with U87MG cells subcutaneous tumor?
-- reply 12.90

-- ask So what Concentration of radioactivity in tumor did Cc1cc(OCCCC(=O)NCCNC(=O)[C@H](CS(=O)(=O)O)NC(=O)CN2CCN(CC(=O)[O-])CCN(CC(=O)[O-])CCN(CC(=O)O)CC2)cc(C)c1S(=O)(=O)N[C@@H](CNC(=O)CCCCc1ccc2c(n1)NCCC2)C(=O)O.[64Cu+2] [[^64Cu]-(P2)] get with U87MG cells subcutaneous tumor?
-- reply 8.48

-- ask So what Concentration of radioactivity in tumor did Cc1cc(OCCCC(=O)NCCNC(=O)COCCOCCNC(=O)[C@H](CS(=O)(=O)O)NC(=O)CN2CCN(CC(=O)[O-])CCN(CC(=O)[O-])CCN(CC(=O)[O-])CC2)cc(C)c1S(=O)(=O)N[C@@H](CNC(=O)c1ccc(CCc2ccc3c(n2)NCCC3)cc1)C(=O)O.[111In+3] [[^111In]-(G3)] get with U87MG cells subcutaneous tumor?
-- reply 9.82

-- ask So what Concentration of radioactivity in tumor did Cc1cc(OCCCC(=O)NCCNC(=O)C(CS(=O)(=O)O)NC(=O)C(CS(=O)(=O)O)NC(=O)CN2CCN(CC(=O)[O-])CCN(CC(=O)[O-])CCN(CC(=O)[O-])CC2)cc(C)c1S(=O)(=O)NC(CNC(=O)CCCCc1ccc2c(n1)NCCC2)C(=O)O.[111In+3] (stereo not drawn) [[^111In]-(O10)] get with U87MG cells subcutaneous tumor?
-- reply 12.40

-- ask So what Concentration of radioactivity in tumor did Cc1cc(OCCCC(=O)NCCNC(=O)C(CS(=O)(=O)O)NC(=O)CCC(NC(=O)CN2CCN(CC(=O)[O-])CCN(CC(=O)[O-])CCN(CC(=O)[O-])CC2)C(=O)NC(CS(=O)(=O)O)C(=O)NCCNC(=O)CCCOc2cc(C)c(S(=O)(=O)NC(CNC(=O)c3ccc(CCc4ccc5c(n4)NCCC5)cc3)C(=O)O)c(C)c2)cc(C)c1S(=O)(=O)NC(CNC(=O)c1ccc(CCc2ccc3c(n2)NCCC3)cc1)C(=O)O.[111In+3] (stereo not drawn) [[^111In]-(H9)] get with U87MG cells subcutaneous tumor?
-- reply 8.74
